# Tested on: primary human peripheral blood mononuclear cells
# applied.conditions: human
value.type: CC50

Exercise: // lookup CC50 for Cc1cn([C@H]2C[C@H](N=[N+]=[N-])[C@@H](CO)O2)c(=O)[nH]c1=O [AZT, 3′-azido-3′-deoxythymidine, reference compound]
Solution: > 100 µM

* * *

Would you kindly list CC50 for each of these compounds?
# System: primary human peripheral blood mononuclear cells
# measurement.protocol: Cytotoxicity on PBMCs
# applied.conditions: experiment 1; PBMC

Exercise: Given O=C([O-])CC[C@H](NC(=O)c1ccc(NCc2cnc3nc([N-]c4nc5ncc(CNc6ccc(C(=O)N[C@@H](CCC(=O)[O-])C(=O)[O-])cc6)nc5c(=O)[nH]4)[nH]c(=O)c3n2)cc1)C(=O)[O-].[Na+].[Na+].[Na+].[Na+].[Na+] [Compound 10] , state its recorded CC50.
Solution: > 100 µM

Exercise: Value lookup for CC50; key = Nc1nc2ncc(CNc3ccc(C(=O)N[C@@H](CCC(=O)O)C(=O)O)cc3)nc2c(=O)[nH]1.O.O [Compound 8, L-folic acid dihydrate, reference compound]
Solution: 25.7 µM

Taken from paper PMC7734623.
